Data origin: patent US7056679B2

Molecular target: DGI-2 (Homo sapiens, UniProt Q15004)
Construct: encompassed the entire DGI-2 open reading frame (ORF); His-tag of vector pIVEX2.3-MCS (inferred from the vector and from the reverse primer lacking a stop codon); made in house; host or cells: cell-free in vitro translation (Rapid Translation System RTS, Roche; E. coli lysate)
Sequence (Q15004 1-111): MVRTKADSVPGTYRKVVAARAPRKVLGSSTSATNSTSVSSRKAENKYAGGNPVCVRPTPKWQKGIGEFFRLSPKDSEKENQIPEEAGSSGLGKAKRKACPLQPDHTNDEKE
Assay: ELISA analysis of phage on DGI-2 polypeptide (specific binding)
Conditions: ratio of specific binding to non-specific binding
// returns not satisfied unless DGI-2/LDH (OD) is strictly below 3, in which case satisfied

| SEQUENCE STRING | TESTED TARGET | ASSIGNED LABEL |
| --- | --- | --- |
| CGGWGAMWEAWVQGLNGAGC (DGI-2-20R-3-D4; listed as Escherichia coli) | DGI-2 (Homo sapiens, UniProt Q15004) | not satisfied |
| WGCVFRQWASGSGAGCARRH (DGI-2-20R-3-D9; listed as Escherichia coli) | DGI-2 (Homo sapiens, UniProt Q15004) | not satisfied |

Quick check: DGI-2/LDH (OD) of QMIFSKGNWLAHPEGGVALGLSRESQLFRSCREFGYCMGPM [DGI-2-40F-3-C6] under 3? satisfied

Quick check: DGI-2/LDH (OD) of ERVSKCVGRGSGRSVGQFGG (DGI-2-20F-PP-F1; listed as Escherichia coli) under 3? not satisfied

Quick check: DGI-2/LDH (OD) of WVVALRRIRLGLRRGVECLL (DGI-2-20F-PP-D5; listed as Escherichia coli) under 3? satisfied

Quick check: DGI-2/LDH (OD) of EGNWFCAVFRGFCVGDRGPE (DGI-2-20R-3-A1; listed as Escherichia coli) under 3? not satisfied

Quick check: DGI-2/LDH (OD) of EVFVSVWVFRFRVMPVTPGGT (DGI-2-20F-PP-E6; listed as Escherichia coli) under 3? satisfied

Quick check: DGI-2/LDH (OD) of VCSGGKGTWLEIPDRVRSST (DGI-2-20F-PP-A22; listed as Escherichia coli) under 3? not satisfied
